Experiment: Plasma and tissue pharmacokinetics following a single oral administration in male SD rat
Format: in vivo
Details: kidney, 10 mg/kg, 24 h post dose, read-out: 24 h Conc., Kidney (mean)
Description: Assay: Plasma and Tissue Pharmacokinetics of Example 22 Following a Single Oral Administration in Male SD Rat Preparation of PO (10 mg/kg, 10 mL/kg) Dosing 1 mg/mL solution of 0.5% (w/v) CMC-Na, 0.1% (v/v) Tween 80 in Milli-Q Water. Dissolved 29.68 mg of EXAMPLE 22 in 29.637 mL of 0.5% (w/v) CMC-Na, 0.1% (v/v). Tween 80 in Milli-Q Water with vortexing and sonicate to obtain a solution. […]
quantityName: concentration at 24 h (ng/g)
Give bare numbers, in ng/g.

GET /value?item= O=C(O)C[C@H](CCN1CCCC(F)(F)C1)NC(=O)c1cc(-c2ccccc2C(F)(F)F)n(-c2nccs2)n1 &field=concentration at 24 h returns 22.9
